Values compiled from patent US6627399B1.

Molecular target: wild-type T7 RNA polymerase (Escherichia phage T7, UniProt P00573)
Sequence (P00573 whole entry): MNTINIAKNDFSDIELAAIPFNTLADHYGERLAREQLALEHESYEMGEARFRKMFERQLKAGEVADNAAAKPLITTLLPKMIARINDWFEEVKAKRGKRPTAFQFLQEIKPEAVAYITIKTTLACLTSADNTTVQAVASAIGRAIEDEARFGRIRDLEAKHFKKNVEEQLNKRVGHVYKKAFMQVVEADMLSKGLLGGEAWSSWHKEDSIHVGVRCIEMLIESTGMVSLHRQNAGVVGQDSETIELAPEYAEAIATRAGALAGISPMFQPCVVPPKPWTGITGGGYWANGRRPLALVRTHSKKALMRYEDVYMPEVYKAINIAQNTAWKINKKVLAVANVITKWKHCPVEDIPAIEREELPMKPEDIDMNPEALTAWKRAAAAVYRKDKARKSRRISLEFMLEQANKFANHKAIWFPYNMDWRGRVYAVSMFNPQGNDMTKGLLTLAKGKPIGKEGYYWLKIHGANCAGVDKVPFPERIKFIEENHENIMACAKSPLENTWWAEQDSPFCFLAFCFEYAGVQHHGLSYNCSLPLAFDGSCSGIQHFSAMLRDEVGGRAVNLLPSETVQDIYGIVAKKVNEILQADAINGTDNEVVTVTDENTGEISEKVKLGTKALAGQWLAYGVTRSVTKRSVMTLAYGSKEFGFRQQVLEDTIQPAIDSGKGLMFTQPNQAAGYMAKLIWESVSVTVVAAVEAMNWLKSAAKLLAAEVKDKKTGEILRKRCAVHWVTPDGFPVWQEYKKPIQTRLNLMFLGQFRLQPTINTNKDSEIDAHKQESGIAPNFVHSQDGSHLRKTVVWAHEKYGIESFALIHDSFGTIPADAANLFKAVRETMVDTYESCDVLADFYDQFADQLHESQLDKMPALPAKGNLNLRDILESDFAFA
Experiment: Accelerating effect of polyamines on in vitro transcription activity of T7 RNA polymerase ([α32P]UTP incorporation, gel electrophoresis)
Assay type: biochemical, bacteriophage T7
Parameters: key: fold radioactivity relative to blank without polyamine
Details: polyamine final concentration 2 mM, 37° C. for one hour; amplification of radioactivity of transcription products compared to a blank without polyamine
Documented Activity Level across a set of molecules
Number only, please.

molecule: CCNCCCCNCCCCCCCNCCCCNCC [Compound 15d]
target or system: wild-type T7 RNA polymerase (Escherichia phage T7, UniProt P00573)
metric name: Activity Level
reported: 1.29
//
molecule: CCNCCCCNCCCCCNCCCCNCC [Compound 15b]
target or system: wild-type T7 RNA polymerase (Escherichia phage T7, UniProt P00573)
metric name: Activity Level
reported: 1.18
//
molecule: NCCCCNCCCCCCCCNCCCCN [Compound 19, 1,18-diamino-5,14-diazaoctadecane]
target or system: wild-type T7 RNA polymerase (Escherichia phage T7, UniProt P00573)
metric name: Activity Level
reported: 1.41
//
molecule: CCNCCCCCCCCNCC [Compound 21, N1,N8di(ethylamino)-octane]
target or system: wild-type T7 RNA polymerase (Escherichia phage T7, UniProt P00573)
metric name: Activity Level
reported: 4.91

Now take the following molecule into account.
The molecule listed as CCN(CCCCCCCCN(CC)S(=O)(=O)c1ccc(C)cc1)S(=O)(=O)c1ccc(C)cc1 [Compound 20] has a reported Activity Level of 1.11
